system: L6; experiment: Cytotoxicity against rat L6 cells; assay type: cell-based
Threshold 7 µM. IC50 below it: TRUE. IC50 at it or above: FALSE.

These solved cases illustrate the format of a correct answer.
molecule	experimental_target	answer_label
[Cl-].c1cc2nc3ccc(N4CCCCC4)cc3[o+]c2cc1N1CCCCC1	L6	TRUE
CCN(CC)c1ccc2nc3ccc(N(CC)CC)cc3[o+]c2c1.[Cl-]	L6	TRUE
CCCN(CCC)c1ccc2nc3ccc(N4CCCC4)cc3[o+]c2c1.[Cl-]	L6	TRUE
CN(C)c1ccc2nc3ccc(N4CCCC4)cc3[o+]c2c1.[Cl-]	L6	FALSE
CCCCCCN(CCCCCC)c1ccc2nc3ccc(N4CCCCC4)cc3[o+]c2c1.[Cl-]	L6	TRUE

Query: Given `[Cl-].c1cc2nc3ccc(N4CCOCC4)cc3[o+]c2cc1N1CCOCC1` , is recorded IC50 strictly lower than 7 µM?
Response: FALSE

Query: For `CCN(CC)c1ccc2nc3ccc(N4CCOCC4)cc3[o+]c2c1.[Cl-]` then?
Response: FALSE

Query: Entry `CCCCCN(CCCCC)c1ccc2nc3ccc(N4CCCCC4)cc3[o+]c2c1.[Cl-]` please
Response: TRUE

Query: Queued: COc1cc([C@@H]2c3cc4c(cc3[C@H](O)[C@H]3COC(=O)[C@H]23)OCO4)cc(OC)c1OC [PODOFILOX]
Response: TRUE

Query: Moving on to the next molecule: `CCCN(CCC)c1ccc2nc3ccc(N4CCCCC4)cc3[o+]c2c1.[Cl-]`
Response: TRUE

Query: // query: `CN(C)c1ccc2nc3ccc(N4CCSCC4)cc3[o+]c2c1.[Cl-]`
Response: FALSE

Query: Now give it for `CCN(CC)c1ccc2nc3ccc(N4CCCC4)cc3[o+]c2c1.[Cl-]` too.
Response: FALSE

====

tested on: Trypanosoma brucei rhodesiense; assay: Antitrypanosomal activity against Trypanosoma brucei rhodesiense STIB900; assay type: functional, organism-based
Assignment: determine reported pIC50 for the given compounds.
Give bare numbers, as −log10 of the molar value.

Provide pIC50 values for the following items, in order.
1. CCN(CC)c1ccc2nc3ccc(N4CCCCC4)cc3[o+]c2c1.[Cl-]
2. [Cl-].c1cc2nc3ccc(N4CCCCC4)cc3[o+]c2cc1N1CCCCC1
3. CCCCCN(CCCCC)c1ccc2nc3ccc(N4CCCCC4)cc3[o+]c2c1.[Cl-]
4. CCN(CC)c1ccc2nc3ccc(N4CCOCC4)cc3[o+]c2c1.[Cl-]
5. CN(C)c1ccc2nc3ccc(N4CCSCC4)cc3[o+]c2c1.[Cl-]

Response:
1. 6.61
2. 6.81
3. 7.66
4. 5.39
5. 5.26

====

experiment: Selectivity index, Ratio of IC50 for rat L6 cells to IC50 for Plasmodium falciparum K1; type: functional
test_readout: Ratio IC50
Answers are plain numbers.

Look over these answered cases.
CCCN(CCC)c1ccc2nc3ccc(N4CCCC4)cc3[o+]c2c1.[Cl-] 355
CCN(CC)c1ccc2nc3ccc(N4CCCCC4)cc3[o+]c2c1.[Cl-] 2390
CCCCN(CCCC)c1ccc2nc3ccc(N4CCCCC4)cc3[o+]c2c1.[Cl-] 12.3
[Cl-].c1cc2nc3ccc(N4CCCCC4)cc3[o+]c2cc1N1CCCCC1 1050

Query: Param item = `[Cl-].c1cc2nc3ccc(N4CCCC4)cc3[o+]c2cc1N1CCCC1` ; retrieve measured Ratio IC50.
Response: 1400

====

tested on: L6; experiment: Cytotoxicity against rat L6 cells; type: cell-based
test_readout: pIC50
Give bare numbers, as −log10 of the molar value.

CCN(CC)c1ccc2nc3ccc(N4CCCCC4)cc3[o+]c2c1.[Cl-] 5.19
CCCN(CCC)c1ccc2nc3ccc(N4CCSCC4)cc3[o+]c2c1.[Cl-] 5.15
CCCCN(CCCC)c1ccc2nc3ccc(N4CCCCC4)cc3[o+]c2c1.[Cl-] 7.05
CCCN(CCC)c1ccc2nc3ccc(N4CCOCC4)cc3[o+]c2c1.[Cl-] 4.71

Turning now to a further molecule:
Query: So what does the record say about pIC50 for `CCN(CC)c1ccc2nc3ccc(N4CCSCC4)cc3[o+]c2c1.[Cl-]` ?
Response: 4.66

====

Kindly supply the reported Ratio IC50 values for the records listed here.
assay: Selectivity index, Ratio of IC50 for rat L6 cells to IC50 for Plasmodium falciparum K1; assay type: functional
Give bare numbers.

Solved cases below.
CCN(CC)c1ccc2nc3ccc(N(CC)CC)cc3[o+]c2c1.[Cl-] 2410
CN(C)c1ccc2nc3ccc(N4CCOCC4)cc3[o+]c2c1.[Cl-] 2153.9

Below are 6 compounds. Give each one its Ratio IC50.
1. CCCN(CCC)c1ccc2nc3ccc(N4CCSCC4)cc3[o+]c2c1.[Cl-]
2. CN(C)c1ccc2nc3ccc(N4CCSCC4)cc3[o+]c2c1.[Cl-]
3. CCCN(CCC)c1ccc2nc3ccc(N4CCOCC4)cc3[o+]c2c1.[Cl-]
4. CCN(CC)c1ccc2nc3ccc(N4CCSCC4)cc3[o+]c2c1.[Cl-]
5. CCCCCCN(CCCCCC)c1ccc2nc3ccc(N4CCCCC4)cc3[o+]c2c1.[Cl-]
6. CCCN(CCC)c1ccc2nc3ccc(N(CCC)CCC)cc3[o+]c2c1.[Cl-]

Response:
1: 976.7; 2: 4022.5; 3: 3883; 4: 2822; 5: 48; 6: 165

Look up Ratio IC50 for the entries below, preserving their order.
1. CCN(CC)c1ccc2nc3ccc(N4CCOCC4)cc3[o+]c2c1.[Cl-]
2. CCCCCN(CCCCC)c1ccc2nc3ccc(N4CCCCC4)cc3[o+]c2c1.[Cl-]

Response:
1: 1363.6; 2: 63

====

Give pIC50 for every item shown.
tested on: L6; assay: Cytotoxicity against rat L6 cells; type: cell-based
Give bare numbers, as −log10 of the molar value.

Please supply pIC50 for each of the following items, keeping them in order.
1. CCCN(CCC)c1ccc2nc3ccc(N(CCC)CCC)cc3[o+]c2c1.[Cl-]
2. CN(C)c1ccc2nc3ccc(N4CCOCC4)cc3[o+]c2c1.[Cl-]
3. CN(C)c1ccc2nc3ccc(N4CCCCC4)cc3[o+]c2c1.[Cl-]
4. [Cl-].c1cc2nc3ccc(N4CCCC4)cc3[o+]c2cc1N1CCCC1

Response:
[6.40, 4.30, 4.65, 5.41]

====

tested on: Trypanosoma brucei rhodesiense; experiment: Antitrypanosomal activity against Trypanosoma brucei rhodesiense STIB900; format: functional, organism-based
IC50 under 200 nM gets 1, anything at or over 200 nM gets 0.

Query: Lab note: confirm whether the reported IC50 for this compound is below 200 nM, equality not counting. compound: `CCCN(CCC)c1ccc2nc3ccc(N4CCSCC4)cc3[o+]c2c1.[Cl-]`
Response: 0

Query: Further, for `CCCCN(CCCC)c1ccc2nc3ccc(N4CCCCC4)cc3[o+]c2c1.[Cl-]` ?
Response: 0

Query: Then `CCCCCCN(CCCCCC)c1ccc2nc3ccc(N4CCCCC4)cc3[o+]c2c1.[Cl-]` ?
Response: 1

Query: Then `CCN(CC)c1ccc2nc3ccc(N(CC)CC)cc3[o+]c2c1.[Cl-]` ?
Response: 0

Query: How about `CCN(CC)c1ccc2nc3ccc(N4CCCC4)cc3[o+]c2c1.[Cl-]` ?
Response: 1
